biological target: Human urinary kallikrein (Homo sapiens, UniProt P06870); construct: Human urinary kallikrein (hereinafter "HUK") was highly purified using a modification of published methods; from tissue; host or cells: human urine; assay: KI determination: inhibition of HUK cleavage of chromogenic substrate S-2266; type: biochemical; settings: S-2266, 50 mM tris-HCL pH 9.0, 37 C; read-out: K1, Human Urinary Kallikrein
Sequence (P06870 25-262): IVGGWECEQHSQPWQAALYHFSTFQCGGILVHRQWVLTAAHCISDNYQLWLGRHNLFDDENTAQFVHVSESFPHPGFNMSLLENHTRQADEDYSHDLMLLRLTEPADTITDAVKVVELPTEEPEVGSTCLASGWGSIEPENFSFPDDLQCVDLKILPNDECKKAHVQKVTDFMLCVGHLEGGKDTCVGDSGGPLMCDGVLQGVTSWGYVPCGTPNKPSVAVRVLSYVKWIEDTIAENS
Ada = not defined here
reported-property: pKi
Please express pKi as -log10 of the molar concentration.

Tell me reported pKi for Ada-Phe-Arg-Ser-Val-Gln-NH2 (Ada-FRSVQ-NH2; reading uncertain; also: printed as Ada-Phe-Arg-Ser-Val-Gln-NH2) [KKI-8] , tested with Human urinary kallikrein (Homo sapiens, UniProt P06870). 5.38
